# C0 per entry
# assay-protocol: Pharmacokinetic assay of compounds in mice
# Type: in vivo, male ICR mice
# settings: male, ICR, mouse, plasma, IV 3 mg/kg, read-out: Starting concentration C0
Give just the number in µM; leave the unit off.

Record excerpt, results attached:
Cc1cc2cc(n1)-c1cnn(C)c1OCCC[C@@H](C)CN1/C(=N/C2=O)Nc2ccc(N=S(C)(C)=O)c(Cl)c21 :: 5.73
Cc1cc2cc(n1)-c1cnn(C)c1OCCC[C@@H](C)CN1/C(=N/C2=O)Nc2ccc(N=S3(=O)CCCC3)cc21 [WX-010 (trifluoroacetate)] :: 8.14
Cc1cc2cc(n1)-c1cnn(C)c1OC[C@H]1CC[C@H](C1)CN1/C(=N/C2=O)Nc2ccc(N=S(C)(C)=O)cc21 (single isomer, unassigned) [WX-027A] :: 6.85
Cc1cc2cc(n1)-c1cnn(C)c1OCCC[C@@H](C)CN1/C(=N/C2=O)Nc2ccc(N=S(C)(C)=O)cc21 :: 8.14

input: Could you share which C0 value was measured for `Cc1cc2cc(n1)-c1cnn(C)c1OCCC[C@@H](C)CN1/C(=N/C2=O)Nc2ccc(N=S3(=O)CCOCC3)cc21` ?
output: 12.1

* * *

# target-of-assay: CYP3A4 (Homo sapiens, UniProt P08684)
# Sequence (P08684 whole entry): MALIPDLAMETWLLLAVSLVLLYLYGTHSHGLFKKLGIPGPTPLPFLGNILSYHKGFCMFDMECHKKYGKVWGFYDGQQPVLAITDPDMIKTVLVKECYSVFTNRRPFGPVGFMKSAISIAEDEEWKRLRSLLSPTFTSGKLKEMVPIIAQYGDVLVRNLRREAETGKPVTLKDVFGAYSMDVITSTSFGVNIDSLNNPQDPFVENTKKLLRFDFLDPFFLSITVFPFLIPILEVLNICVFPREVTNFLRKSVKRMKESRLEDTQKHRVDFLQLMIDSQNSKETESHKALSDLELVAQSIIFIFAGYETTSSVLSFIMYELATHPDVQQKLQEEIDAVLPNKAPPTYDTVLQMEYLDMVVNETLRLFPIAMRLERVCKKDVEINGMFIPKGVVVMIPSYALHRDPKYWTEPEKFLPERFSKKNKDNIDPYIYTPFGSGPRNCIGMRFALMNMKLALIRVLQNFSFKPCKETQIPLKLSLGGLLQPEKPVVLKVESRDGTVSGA
reported-endpoint: pIC50
Bear in mind: pIC50 is minus log10 of a mol/L concentration; give just that figure.

input: Could you share which pIC50 value was measured for Cc1cc2cc(n1)-c1cnn(C)c1OC[C@H]1CC[C@H](C1)CN1/C(=N/C2=O)Nc2ccc(N=S(C)(C)=O)cc21 (single isomer, unassigned) [WX-027A] ?
output: 4.70

* * *

pIC50: −log10 of the molar value.
Please consider the recorded pIC50 for CYP2D6 (Homo sapiens, UniProt P10635) in what follows.

input: Could you share which pIC50 value was measured for Cc1cc2cc(n1)-c1cnn(C)c1OCCC[C@@H](C)CN1/C(=N/C2=O)Nc2ccc(N=S(C)(C)=O)c(Cl)c21 [WX-019] ?
output: < 4.30

input: Thanks! And Cc1cc2cc(n1)-c1cnn(C)c1OC[C@H]1CC[C@H](C1)CN1/C(=N/C2=O)Nc2ccc(N=S(C)(C)=O)cc21 (single isomer, unassigned) [WX-027A] ?
output: < 4.30

* * *

# Cmax per entry
# assay-protocol: Pharmacokinetic assay of compounds in mice
# Assay type: in vivo, male ICR mice
# settings: male, ICR, mouse, plasma, PO 10 mg/kg, read-out: Peak concentration Cmax
Give just the number in µM; leave the unit off.

Record excerpt, results attached:
Cc1cc2cc(n1)-c1cnn(C)c1OCCC[C@@H](C)CN1/C(=N/C2=O)Nc2ccc(N=S(C)(C)=O)cc21 :: 3.59
Cc1cc2cc(n1)-c1cnn(C)c1OCCC[C@@H](C)CN1/C(=N/C2=O)Nc2ccc(N=S3(=O)CCCC3)cc21 [WX-010 (trifluoroacetate)] :: 4.49
Cc1cc2cc(n1)-c1cnn(C)c1OCCC[C@@H](C)CN1/C(=N/C2=O)Nc2ccc(N=S3(=O)CCOCC3)cc21 :: 3.94
Cc1cc2cc(n1)-c1cnn(C)c1OCCC[C@@H](C)CN1/C(=N/C2=O)Nc2ccc(N=S(C)(C)=O)c(Cl)c21 :: 3.92

Turning now to a further record.
input: Could you share which Cmax value was measured for Cc1cc2cc(n1)-c1cnn(C)c1OC[C@H]1CC[C@H](C1)CN1/C(=N/C2=O)Nc2ccc(N=S(C)(C)=O)cc21 (single isomer, unassigned) [WX-027A] ?
output: 5.91

* * *

# target-of-assay: Ba/F3-FL-EGFR (WT) (Homo sapiens)
# Sequence (P00533 whole entry, change not shown): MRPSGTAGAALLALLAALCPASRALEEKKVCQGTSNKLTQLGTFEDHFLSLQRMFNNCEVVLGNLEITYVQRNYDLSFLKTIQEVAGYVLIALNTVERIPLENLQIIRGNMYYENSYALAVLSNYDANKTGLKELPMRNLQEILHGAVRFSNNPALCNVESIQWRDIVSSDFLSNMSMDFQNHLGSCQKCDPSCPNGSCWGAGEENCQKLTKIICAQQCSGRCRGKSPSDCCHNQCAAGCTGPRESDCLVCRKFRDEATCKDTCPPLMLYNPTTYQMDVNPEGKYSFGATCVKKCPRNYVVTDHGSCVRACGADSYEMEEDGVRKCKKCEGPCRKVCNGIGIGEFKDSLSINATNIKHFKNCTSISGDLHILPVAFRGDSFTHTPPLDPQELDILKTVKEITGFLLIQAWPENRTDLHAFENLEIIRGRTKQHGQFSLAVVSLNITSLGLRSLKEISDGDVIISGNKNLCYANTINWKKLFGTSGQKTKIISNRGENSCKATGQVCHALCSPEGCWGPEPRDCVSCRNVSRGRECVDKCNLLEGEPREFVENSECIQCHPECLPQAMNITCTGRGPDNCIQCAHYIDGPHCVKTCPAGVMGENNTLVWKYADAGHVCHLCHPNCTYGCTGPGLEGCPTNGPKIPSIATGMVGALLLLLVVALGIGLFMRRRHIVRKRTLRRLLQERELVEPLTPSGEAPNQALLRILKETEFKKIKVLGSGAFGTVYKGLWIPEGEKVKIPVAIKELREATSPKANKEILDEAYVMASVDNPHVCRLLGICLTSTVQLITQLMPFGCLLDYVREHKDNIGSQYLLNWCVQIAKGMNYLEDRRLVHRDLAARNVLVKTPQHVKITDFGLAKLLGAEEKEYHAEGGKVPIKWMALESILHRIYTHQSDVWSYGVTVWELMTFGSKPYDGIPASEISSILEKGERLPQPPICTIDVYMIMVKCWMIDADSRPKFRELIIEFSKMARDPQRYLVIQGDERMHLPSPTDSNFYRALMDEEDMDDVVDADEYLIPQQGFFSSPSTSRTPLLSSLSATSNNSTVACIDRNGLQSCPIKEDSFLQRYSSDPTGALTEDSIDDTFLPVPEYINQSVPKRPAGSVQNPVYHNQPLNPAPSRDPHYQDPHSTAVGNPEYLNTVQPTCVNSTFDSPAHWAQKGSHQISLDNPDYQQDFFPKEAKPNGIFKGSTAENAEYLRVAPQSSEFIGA
# assay-protocol: Cell proliferation inhibition, CellTiter-Glo
# Format: cell-based
# settings: 72 hours, read-out: Cell half-maximal inhibition concentration IC50 Ba/F3-FL-EGFR (WT)
reported-endpoint: GI50 (nM)
Give just the number in nM; leave the unit off.

Record excerpt, results attached:
Cc1cc2cc(n1)-c1cnn(C)c1OC[C@H]1CC[C@H](C1)CN1/C(=N/C2=O)Nc2ccc(N=S(C)(C)=O)cc21 (single isomer, unassigned) [WX-027A] :: 295
Cc1cc2cc(n1)-c1cnn(C)c1OCCC[C@@H](C)CN1/C(=N/C2=O)Nc2ccc(N=S(C)(C)=O)c(Cl)c21 [WX-019] :: 303
Cc1cc2cc(n1)-c1cnn(C)c1OCCC[C@@H](C)CN1/C(=N/C2=O)Nc2ccc(N=S3(=O)CCNCC3)cc21 [WX-014] :: 421
Cc1cc2cc(n1)-c1cnn(C)c1OCCC[C@@H](C)CN1/C(=N/C2=O)Nc2ccc(N=S3(=O)CCCC3)cc21 [WX-010 (trifluoroacetate)] :: 86

Turning now to a further record.
input: What is its GI50 for Ba/F3-FL-EGFR (WT) (Homo sapiens)? Entry: Cc1cc2cc(n1)-c1cnn(C)c1OCCC[C@@H](C)CN1/C(=N/C2=O)Nc2ccc(N=S(C)(C)=O)cc21 [WX-006]
output: 111

* * *

# assay-protocol: Pharmacokinetic assay of compounds in mice
# Type: in vivo, male ICR mice
# settings: male, ICR, mouse, plasma, IV 3 mg/kg, read-out: Area under the curve AUC0-last
Mark each entry Criterion met if its AUC(0-t) sits below 8 µM·h, and Criterion not met for all others.

Field: example entries. Status: answers known.
Cc1cc2cc(n1)-c1cnn(C)c1OCCC[C@@H](C)CN1/C(=N/C2=O)Nc2ccc(N=S3(=O)CCOCC3)cc21 [WX-013] :: Criterion not met
Cc1cc2cc(n1)-c1cnn(C)c1OCCC[C@@H](C)CN1/C(=N/C2=O)Nc2ccc(N=S3(=O)CCCC3)cc21 [WX-010 (trifluoroacetate)] :: Criterion not met
Cc1cc2cc(n1)-c1cnn(C)c1OCCC[C@@H](C)CN1/C(=N/C2=O)Nc2ccc(N=S(C)(C)=O)c(Cl)c21 [WX-019] :: Criterion not met
Cc1cc2cc(n1)-c1cnn(C)c1OC[C@H]1CC[C@H](C1)CN1/C(=N/C2=O)Nc2ccc(N=S(C)(C)=O)cc21 (single isomer, unassigned) [WX-027A] :: Criterion met

As a next step, examine the molecule that follows.
input: Could you please tell me whether AUC(0-t) recorded for Cc1cc2cc(n1)-c1cnn(C)c1OCCC[C@@H](C)CN1/C(=N/C2=O)Nc2ccc(N=S(C)(C)=O)cc21 [WX-006] is less than 8 µM·h?
output: Criterion met

* * *

# GI50 per entry
# target-of-assay: Ba/F3-FL-EGFR (L858R/T790M/C797S) (Homo sapiens, UniProt P00533, T790M/C797S/L858R, cells depend on it)
# Sequence (P00533 whole entry T790M/C797S/L858R): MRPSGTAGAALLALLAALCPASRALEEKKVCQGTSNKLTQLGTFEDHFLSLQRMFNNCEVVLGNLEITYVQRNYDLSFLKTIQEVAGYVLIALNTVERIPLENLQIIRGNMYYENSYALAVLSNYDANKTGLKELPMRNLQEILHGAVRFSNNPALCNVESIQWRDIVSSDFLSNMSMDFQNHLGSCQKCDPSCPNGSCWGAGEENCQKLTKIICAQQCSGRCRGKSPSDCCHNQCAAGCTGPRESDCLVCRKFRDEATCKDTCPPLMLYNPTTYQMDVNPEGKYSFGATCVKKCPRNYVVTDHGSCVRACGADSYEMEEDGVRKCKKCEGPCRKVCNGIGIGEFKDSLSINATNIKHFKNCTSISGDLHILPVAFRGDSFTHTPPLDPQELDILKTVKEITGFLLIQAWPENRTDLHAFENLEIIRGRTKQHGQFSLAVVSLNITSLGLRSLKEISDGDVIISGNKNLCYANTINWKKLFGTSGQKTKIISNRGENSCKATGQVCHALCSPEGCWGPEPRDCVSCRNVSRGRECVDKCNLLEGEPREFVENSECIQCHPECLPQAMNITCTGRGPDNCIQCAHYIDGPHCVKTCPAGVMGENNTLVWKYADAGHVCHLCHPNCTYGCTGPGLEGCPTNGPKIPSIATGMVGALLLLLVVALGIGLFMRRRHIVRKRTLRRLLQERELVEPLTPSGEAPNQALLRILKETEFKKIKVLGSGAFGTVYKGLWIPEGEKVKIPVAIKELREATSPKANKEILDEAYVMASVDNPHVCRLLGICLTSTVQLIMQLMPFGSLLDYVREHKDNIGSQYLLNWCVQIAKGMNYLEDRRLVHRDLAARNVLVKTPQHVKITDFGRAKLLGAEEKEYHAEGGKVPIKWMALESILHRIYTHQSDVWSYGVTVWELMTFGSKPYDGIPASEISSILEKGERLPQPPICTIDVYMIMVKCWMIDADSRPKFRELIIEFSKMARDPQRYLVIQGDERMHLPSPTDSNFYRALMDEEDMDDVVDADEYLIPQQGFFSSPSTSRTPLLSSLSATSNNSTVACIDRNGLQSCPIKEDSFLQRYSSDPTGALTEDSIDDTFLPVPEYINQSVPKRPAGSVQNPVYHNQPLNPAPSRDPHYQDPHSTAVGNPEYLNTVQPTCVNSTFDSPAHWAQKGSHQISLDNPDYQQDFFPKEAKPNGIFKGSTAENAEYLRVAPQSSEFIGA
# assay-protocol: Cell proliferation inhibition, CellTiter-Glo
# Type: cell-based
# settings: 72 hours, read-out: Cell half-maximal inhibition concentration IC50 Ba/F3-FL-EGFR (L858R/T790M/C797S)
Where a name gives a salt, the structure may show the parent alone.
Give just the number in nM; leave the unit off.

Record excerpt, results attached:
Cc1cc2cc(n1)-c1cnn(C)c1OCCC[C@@H](C)CN1/C(=N/C2=O)Nc2ccc(N=S3(=O)CCCC3)cc21 [WX-010 (trifluoroacetate)] :: 2.8
CCS(=O)(CC)=Nc1ccc2c(c1)N1C[C@H](C)CCCOc3c(cnn3C)-c3cc(cc(C)n3)C(=O)/N=C/1N2 [WX-012 (hydrochloride)] :: 7.3

Turning now to a further record.
input: Could you share which GI50 value was measured for `Cc1cc2cc(n1)-c1cnn(C)c1OCCC[C@@H](C)CN1/C(=N/C2=O)Nc2ccc(N=S3(=O)CCN(C4CCN(C)CC4)CC3)cc21` ?
output: 12.7

* * *

# assay-protocol: Pharmacokinetic assay of compounds in mice
# Assay type: in vivo, male ICR mice
# settings: male, ICR, mouse, plasma, PO 10 mg/kg vs IV 3 mg/kg, read-out: Bioavailability F %
# Description: Assay purpose: 7-9-week-old male ICR mice were used as test animals. LC/MS/MS method was used to determine the drug concentration of the compound in the plasma at different times after a single intravenous injection (IV) and oral administration (PO) of the compound, to study the pharmacokinetic behavior of the compounds of the present disclosure in mice, and to evaluate their pharmacokinetic characteristics. […]
reported-endpoint: bioavailability (%)
Give just the number in %; leave the unit off.

Record excerpt, results attached:
Cc1cc2cc(n1)-c1cnn(C)c1OCCC[C@@H](C)CN1/C(=N/C2=O)Nc2ccc(N=S(C)(C)=O)cc21 [WX-006] :: 83
Cc1cc2cc(n1)-c1cnn(C)c1OCCC[C@@H](C)CN1/C(=N/C2=O)Nc2ccc(N=S(C)(C)=O)c(Cl)c21 [WX-019] :: 65
Cc1cc2cc(n1)-c1cnn(C)c1OCCC[C@@H](C)CN1/C(=N/C2=O)Nc2ccc(N=S3(=O)CCCC3)cc21 [WX-010 (trifluoroacetate)] :: 56
Cc1cc2cc(n1)-c1cnn(C)c1OCCC[C@@H](C)CN1/C(=N/C2=O)Nc2ccc(N=S3(=O)CCOCC3)cc21 [WX-013] :: 34

input: Could you share which bioavailability value was measured for Cc1cc2cc(n1)-c1cnn(C)c1OC[C@H]1CC[C@H](C1)CN1/C(=N/C2=O)Nc2ccc(N=S(C)(C)=O)cc21 (single isomer, unassigned) [WX-027A] ?
output: 64

Sourced from patent US20250084097A1
